Tested on: COLO 205 colon
procedure-details: NCI-60 one-dose screen, 48 h (100 = growth as untreated, 0 = no growth, -100 = all killed)
details: 10 µM unless noted
The panel holds about 83,000 compounds, 20% with a hit somewhere; the sample as a whole holds those more often.
readout-kind: growth (%)
Note: unit % is implicit; provide only the numeric part.

What value of growth has been recorded for this entry: "CN1C(=O)N[C@H]2[C@@H]3NC(=O)c4ccc(Br)n4[C@@H]3C[C@]21O"
-49.5

Also check "CCC[CH2][Sn]([CH2]CCC)([CH2]CCC)[O]c1ccc(Cl)cc1Cl"
-75.2

Now this one: "CCOC(=O)c1c(C)n(Cc2ccccc2)c2cc(CN(C)C)c(O)cc12"
58

Please give the result for "ClCCN(CCCl)Cc1ccc(Nc2ccnc3cc(Cl)ccc23)cc1" too.
50.6

Now this one: "C[C@@]12CC[C@@H](O)C[C@@H]1CC[C@H]1[C@H]2CC[C@@]2(C)[C@H](c3ccc(=O)oc3)CC[C@@]12O"
-68.1

Same lookup for O=C([O][Hg][CH2]C1OCCOC1[CH2][Hg][O]C(=O)c1ccccc1)c1ccccc1 (configuration not stated) , please.
-64.7

Also "O=C1NC(=O)C(=Cc2cn(CCCCCCn3c4ccccc4c(=O)c4ccccc43)c3ccccc23)C(=O)N1" , if possible.
92.3

Try the compound "NC(N)=N/N=C\c1c[nH]c2ccc(Br)cc12"
84.5

Please do the same for "CC(=O)O[C@H](C[C@H](C(C)C)N(C)C(=O)[C@@H](NC(=O)[C@H]1CCCCN1C)C(C)C)c1nc(C(=O)N[C@@H](Cc2ccccc2)C[C@H](C)C(=O)O)c(C)s1" as well.
-62.6

// same read-out, input: "CC(=O)O[C@H]1CC[C@]2(C)[C@H]3CC[C@]4(C)[C@@H](OC(C)=O)CC[C@H]4[C@@H]3[C@@H](C)[C@]2(O)C1"
104

Lookup "CC(C)CCC1(CCCl)C(=O)NC(=O)NC1=O"
110

How about "COC(=O)CCc1c[nH]c2ccc(N(CCCl)CCCl)cc12" ?
68.8

Thanks! And "COc1ccc2c(c1)c(-c1nc(-c3cn(C)c4ncccc34)cs1)cn2CCCCN1CCCCC1" ?
-71.7

Also check CN(C)C1C(=O)C(C(N)=O)=C(O)C2(O)C(=O)C3=C(O)c4c(O)cccc4C(C)(O)C3CC12.[Cl][Sb]([Cl])[Cl] (configuration not stated)
96.5

What do you have for CCCCCCCC(=O)OCC(=O)[C@]1(O)Cc2c(O)c3c(c(O)c2[C@@H](OC2CC(N)C(O)C(C)O2)C1)C(=O)c1c(OC)cccc1C3=O (some centres not stated) ?
-85.7

And then "CC1=C(CCCNS(C)(=O)=O)C2=C(C)C3(CC3)[C@@](C)(O)C(=O)C2=C1" , what is it?
-61

Do the same for "COc1ccc(NC([Se])=NC23CC4CC(CC(C4)C2)C3)cc1" please
-32.1

Now consider "COc1cc(C=Nc2cccc(C(=O)O)c2)ccc1N(CCCl)CCCl" and answer again.
67.1

And then O=C(CC1(O)C(=O)N(Cc2ccccc2)c2ccccc21)c1ccc(C(=O)NCC2CCC3(CC2)OOC2(CCCCC2)OO3)cc1 (configuration not stated) , what is it?
-52.9

// repeat for COC(=O)[C@H](Cc1c[nH]c2ccccc12)NC(=O)[C@@H](OC)[C@@H]1Cc2cc3cc(OC4CC(OC5CC(O)C(O)C(C)O5)C(O)C(C)O4)c(C)c(O)c3c(O)c2C(=O)[C@H]1OC1CC(OC2CC(OC3CC(C)(O)C(O)C(C)O3)C(O)C(C)O2)C(O)C(C)O1 (some centres not stated) and report
-39.5

Repeat for the following compound: "COC(=O)CCC1=C(C)c2cc3[n-]c(cc4nc(cc5[n-]c(cc1n2)c(CCC(=O)OC)c5C)C=C4C)cc3C.[Cd+2]"
22.4

Try the compound "C[C@]12CCc3nc(Nc4ccccc4F)sc3C1=CC[C@@H]1[C@@H]2CC[C@]2(C)C(=O)CC[C@@H]12"
75.7

"Cc1sc2c(c1C)C(c1ccc(Cl)cc1)=N[C@@H](CC(=O)OC(C)(C)C)c1nnc(C)n1-2" ?
19.3

What do you have for "COC(=O)C12CC(NC(=O)c3csc([C@@H](C[C@H](C(C)C)N(C)C(=O)[C@@H](NC(=O)[C@H]4CCCCN4C)C4CC4)OC(C)=O)n3)(C1)C2" ?
-64.5

Item: "CC(C)=CCC[C@H](C(=O)O)[C@@H]1CC[C@]2(C)C3=C(CC[C@@]12C)[C@@]1(C)CC[C@H](O)C(C)(C)[C@@H]1CC3"
120

Also, "CCCC[C@H](NC(=O)[C@H]1CCCN1C)C(=O)N(C)[C@H](C[C@@H](OC(C)=O)c1nc(C(=O)N[C@@H](Cc2ccccc2)C[C@H](C)C(=O)OCC)cs1)C(C)C" please.
-66.7

Check "C[C@]12C[C@@H](CO)[C@H](O)C[C@@H]1CC[C@@H]1[C@@H]2CC[C@]2(C)[C@@H](O)CC[C@@H]12" too.
108

Ok, now "C=CC[PH+](c1ccccc1)c1ccccc1.C=CC[PH+](c1ccccc1)c1ccccc1.[Cl][Pt][Cl]"
22.2

Similarly, "Cc1cnc(/C=C/C(=O)O)cc1-c1cc2c(cc1C)C(C)(C)CCC2(C)C" ?
102

What about "Clc1cc(N2CC2)nc(N2CC2)n1" ?
81.3

And for "CCOC(=O)[C@@H](C)C[C@H](Cc1ccccc1)NC(=O)c1csc([C@@H](C[C@H](C(C)C)N(C)C(=O)[C@H](CC)NC(=O)[C@H]2CCCCN2C)OC(C)=O)n1" ?
-61.6

Let us now turn to COc1cccc(C=NC(Cc2cnc[nH]2)C(=O)O)c1O (configuration not stated)
122

====

System: SW-620 colon
procedure-details: NCI-60 one-dose screen, 48 h (100 = growth as untreated, 0 = no growth, -100 = all killed)
details: 10 µM unless noted
The panel holds about 83,000 compounds, 20% with a hit somewhere; the sample as a whole holds those more often.
One threshold, 30%, splits the recorded growth values: lower ones are label 1, equal or higher ones are label 0.

Hello, I'm reviewing records and need to know if growth of COc1cc(/C=N/C2=C(C#N)C(c3ccco3)c3c(c4cc(C)ccc4oc3=O)O2)cc(OC)c1OC (stereo unspecified) is below 30%. Could you check?
label 0

Try the compound "CC[C@H](C)[C@H](NC(=O)c1cccn1C)C(=O)N(C)[C@H](C[C@@H](OC(C)=O)c1nc(C(=O)N[C@@H](Cc2ccccc2)C[C@H](C)C(=O)OC)cs1)C(C)C"
label 1

Likewise for "COC(=O)C12CC(NC(=O)c3csc([C@@H](C[C@H](C(C)C)N(C)C(=O)[C@@H](NC(=O)[C@H]4CCCCN4C)C(C)C)OC(C)=O)n3)(C1)C2" ?
label 1

"N#C[Se]Cc1cc(-c2ccccc2)n(-c2ccc(S(N)(=O)=O)cc2)n1" , same question.
label 1

Subsequent entry: "O=[N+]([O-])c1c(Br)sc(Br)c1[N+](=O)[O-]"
label 1

Try this compound next: C[S+]1C=Cc2ccccc2C1c1ccc(Cl)cc1 (stereo unspecified)
label 0

// next record N#CC1(C#N)C(c2ccc(N(CCCl)CCCl)cc2)OC23CCCCC2C1(C#N)C(=N)O3 (stereo unspecified)
label 0

Could you do the same for "C[C@]12CCc3sc(NCCc4ccccc4)nc3C1=CC[C@@H]1[C@@H]2CC[C@]2(C)C(=O)CC[C@@H]12" , please?
label 0

Now consider "COc1ccc(/C=C\c2cc(OC)c(OC)c(OC)c2)cc1OCC(=O)Nc1nc2ccc(C(F)(F)F)cc2s1" and answer again.
label 1

Consider next the compound "CC(=O)O[C@H](C[C@H](C(C)C)N(C)C(=O)[C@@H](NC(=O)[C@H]1CCCCN1C)C(C)C)c1nc(C(=O)N[C@@H](Cc2ccccc2)C[C@H](C)C(=O)O)c(C)s1" in the same way.
label 1

Cool, now "O=[N+]([O-])c1cc([N+](=O)[O-])c(Cl)cc1Cl"
label 1

Also need CCCCCN(CCCCC)CC(O)c1cc(Cl)ccc1OC (stereo unspecified) , thanks.
label 1

Queued: "C=C1C[C@](OC)([C@H](O)C(=O)N[C@@H](OC)[C@@H]2C[C@@H](O)C(C)(C)[C@@H](C[C@@H](COC)OC)O2)O[C@H](C)[C@@H]1C"
label 1

Same read-out for "C[C@@H]1C[C@@]2(C)[C@@H](CC[C@@H]3[C@@H]2CC[C@]2(C)C(=O)CC[C@@H]32)CC1=O" ?
label 0

Similarly, "COC(=O)[C@H](Cc1ccccc1)NC(=O)c1csc([C@@H](C[C@H](C(C)C)N(C)C(=O)[C@@H](NC(=O)[C@H]2CCCCN2C)C2CC2)OC(C)=O)n1" ?
label 1
